tested on: UACC-257; experiment: NCI tumour cell line growth inhibition, 48 h
Activity calls are given as the source filed them. Cut-off read from the data, not from the text of the source: active = GI50 up to about 1.1 µM and inactive = higher.
GI50 values for the compounds below.

Would you please look over these solved cases?
query: // lookup GI50 for CC(=O)OC(C)(C)[C@@H]1CC[C@]2(C)/C=C/[C@H](C)C[C@@H](O)C3=C(C)C[C@@H](O3)C12 (stereo not given in full)
result: > 100 µM (inactive)

query: Then this compound: C[C@]12CC[C@H](OC3CCCCO3)CC1=CC[C@@H]1C2CC[C@]2(C)/C(=N/O)CCC12 (stereo not given in full)
result: 30.3 µM (inactive)

query: Then this compound: O=[N+]([O-])c1cc([As](Br)c2ccc(O)c([N+](=O)[O-])c2)ccc1O
result: 1.69 µM (inactive)

query: Then this compound: COc1ccc(CNc2cnc3ccc(N)cc3n2)cc1OC
result: > 100 µM (inactive)

query: Then this compound: C=C(C)C#CC(O)(C(=O)OC1CCN(C)CC1)C(C)C (stereo not given)
result: > 100 µM (inactive)

Others:
query: // lookup GI50 for CC(=O)Nc1cc2ccc(=O)oc2cc1Cl
result: > 100 µM (inactive)

query: Then this compound: C[C@]12CC[C@H]3[C@@H](CCC4=CC(=O)CC[C@@]43C)[C@@H]1CC[C@@H]2OC(=O)c1cccc2c(=O)c3ccccc3[nH]c12
result: 99.5 µM (inactive)

query: Then this compound: O=P1(c2ccccc2)CCCCC1
result: > 100 µM (inactive)

query: Then this compound: CC(=O)Nc1ccccc1NC1CC(C)N(c2ccccc2)N1C(C)=O (stereo not given)
result: > 10 µM (inactive)

query: Then this compound: N=C(N)n1nc2c(c1O)CCCC2
result: > 100 µM (inactive)
